Reference source: patent US20100022542A1

Assayed target: human TPO receptor (hTPOR) (Homo sapiens)
Sequence (P40238 26-635): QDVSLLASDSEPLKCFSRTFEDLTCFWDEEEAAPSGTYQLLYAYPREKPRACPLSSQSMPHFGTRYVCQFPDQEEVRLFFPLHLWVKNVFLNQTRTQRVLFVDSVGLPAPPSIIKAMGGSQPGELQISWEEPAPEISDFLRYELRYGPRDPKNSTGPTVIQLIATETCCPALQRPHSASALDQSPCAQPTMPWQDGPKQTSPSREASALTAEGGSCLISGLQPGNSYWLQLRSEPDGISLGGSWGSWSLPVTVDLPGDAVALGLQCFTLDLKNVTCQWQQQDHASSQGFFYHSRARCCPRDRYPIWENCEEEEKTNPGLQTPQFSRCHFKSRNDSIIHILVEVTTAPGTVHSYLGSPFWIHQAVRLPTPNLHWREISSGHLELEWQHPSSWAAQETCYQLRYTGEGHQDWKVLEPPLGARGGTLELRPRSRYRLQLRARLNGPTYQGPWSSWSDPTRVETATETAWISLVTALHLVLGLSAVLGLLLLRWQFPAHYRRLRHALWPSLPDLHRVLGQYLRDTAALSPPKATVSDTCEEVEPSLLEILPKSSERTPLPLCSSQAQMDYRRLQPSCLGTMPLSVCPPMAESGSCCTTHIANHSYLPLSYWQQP
Test: Proliferation of TPO dependent BaF/hTPOR cells, WST-1, thrombopoietic activity ED50 (Test Example 3)
Measurement conditions: 20 h incubation then WST-1 4 h, absorbance at 450 nm
pEC50: −log10 of the molar value.
Entry flag: fulfilled if pEC50 reaches 7; not fulfilled if it does not.

Look over these answered cases.
compound="COC(=O)CCc1ccc(C(=O)Nc2nc(-c3ccc(Cl)c(Cl)c3)cs2)cc1 [Compound G-1]" assigned_class="not fulfilled"
compound="O=C(O)/C(Cl)=C/c1ccc(C(=O)Nc2nc(-c3ccc(F)c(Br)c3)cs2)cc1 [Compound A-63]" assigned_class=fulfilled
compound="O=C(O)/C(Cl)=C/c1ccc(C(=O)Nc2nc(-c3cccc(-c4ccc(F)cc4)c3F)cs2)cc1 [Compound A-88]" assigned_class=fulfilled
compound="O=C(O)/C(F)=C/c1ccc(C(=O)Nc2nc(-c3cccc(C(F)(F)F)c3)cs2)cc1 [Compound A-44]" assigned_class="not fulfilled"

Turning now to a further record.
# input Would you say Cc1sc(NC(=O)c2ccc(/C=C(\Cl)C(=O)O)cc2)nc1-c1ccc(F)cc1F [Compound J-11] shows pEC50 at minimum 7?
# output not fulfilled
